- target.system: human CD73 (Homo sapiens)
- Sequence (P21589 27-549): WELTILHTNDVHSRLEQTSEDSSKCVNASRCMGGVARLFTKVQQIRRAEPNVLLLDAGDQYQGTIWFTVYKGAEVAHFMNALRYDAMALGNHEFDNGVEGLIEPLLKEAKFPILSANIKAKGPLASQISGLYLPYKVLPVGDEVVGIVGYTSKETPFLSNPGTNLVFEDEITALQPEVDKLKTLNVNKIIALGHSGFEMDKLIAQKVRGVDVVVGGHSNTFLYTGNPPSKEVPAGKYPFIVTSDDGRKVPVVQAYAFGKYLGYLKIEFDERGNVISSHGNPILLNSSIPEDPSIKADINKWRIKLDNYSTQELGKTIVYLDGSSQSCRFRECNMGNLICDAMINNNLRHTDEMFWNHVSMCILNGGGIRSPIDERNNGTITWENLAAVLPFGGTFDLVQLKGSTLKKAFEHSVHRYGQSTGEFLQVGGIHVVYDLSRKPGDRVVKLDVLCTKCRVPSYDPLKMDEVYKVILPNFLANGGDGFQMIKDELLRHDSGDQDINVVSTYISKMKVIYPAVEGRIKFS
- experimental.details: Inhibitor activity against CD73 in cell based assay (CD73 expressing CHO-K1 cells)
- condition.context: CHO-K1 cells expressing human CD73, 150 μM AMP, 4 hours of incubation; read-out: CHO-K1 CELL VARIANT: CD73 IC50
pIC50: −log10 of the molar value.
// reported pIC50 for each item listed

Look over these answered cases.
# given.smiles, pIC50
data = [
    ("N#Cc1ccc(C(=O)N[C@H]2CC[C@H](NC(=O)O[C@@H]3CCN(c4cn[nH]c(=O)c4Cl)C3)CC2)cc1", "5.00 to 9.00"),
    ("CC(C)(C)OC(=O)N1CCC(NC(=O)N[C@@H]2CCN(c3cn[nH]c(=O)c3Cl)C2)CC1", "4.00 to 5.00"),
    ("O=C(NC1CCN(C(=O)Cc2ccccc2)CC1)O[C@@H]1CCN(c2cn[nH]c(=O)c2Cl)C1", "5.00 to 9.00"),
    ("O=C(NC1(C2CC2)CC1)O[C@@H]1CCN(c2cn[nH]c(=O)c2Cl)C1", "5.00 to 9.00"),
    ("CC(C)C(=O)N[C@H]1CC[C@H](NC(=O)O[C@@H]2CCN(c3cn[nH]c(=O)c3Cl)C2)CC1", "4.00 to 5.00"),
]

Entry O=C(N[C@H]1CC[C@H](NC(=O)c2ccccc2)C1)O[C@@H]1CCN(c2cn[nH]c(=O)c2Cl)C1 has what pIC50?
5.00 to 9.00

If you can, please state the reported pIC50 value of N#CC1(NC(=O)O[C@@H]2CCN(c3cn[nH]c(=O)c3Cl)C2)CCC1 .
5.00 to 9.00

Data request, read-out pIC50, for O=C(NC1CCCCC1)O[C@@H]1CCN(c2cnn(-c3cccc(C(=O)O)c3)c(=O)c2Cl)C1
4.00 to 5.00

Bench note: what pIC50 did CCC(CC)NC(=O)O[C@@H]1CCN(c2cn[nH]c(=O)c2Cl)C1 show?
5.00 to 9.00

Requested field: pIC50. Item: O=C(N[C@H]1CCOC1)O[C@@H]1CCN(c2cn[nH]c(=O)c2Cl)C1
5.00 to 9.00

Query (molecule): O=C(NCC1CCCCC1)O[C@@H]1CCN(c2cn[nH]c(=O)c2Cl)C1 ; field requested: pIC50
5.00 to 9.00
